Target: T1, N-terminally FLAG-tagged cynomolgus Ang2 (HEK293T conditioned medium) (cynomolgus, UniProt O15123 19-496 (human entry), limits assumed)
T1 construct: may be a nucleotide entry; also called cAng2; FLAG-cAng2
T1 chain: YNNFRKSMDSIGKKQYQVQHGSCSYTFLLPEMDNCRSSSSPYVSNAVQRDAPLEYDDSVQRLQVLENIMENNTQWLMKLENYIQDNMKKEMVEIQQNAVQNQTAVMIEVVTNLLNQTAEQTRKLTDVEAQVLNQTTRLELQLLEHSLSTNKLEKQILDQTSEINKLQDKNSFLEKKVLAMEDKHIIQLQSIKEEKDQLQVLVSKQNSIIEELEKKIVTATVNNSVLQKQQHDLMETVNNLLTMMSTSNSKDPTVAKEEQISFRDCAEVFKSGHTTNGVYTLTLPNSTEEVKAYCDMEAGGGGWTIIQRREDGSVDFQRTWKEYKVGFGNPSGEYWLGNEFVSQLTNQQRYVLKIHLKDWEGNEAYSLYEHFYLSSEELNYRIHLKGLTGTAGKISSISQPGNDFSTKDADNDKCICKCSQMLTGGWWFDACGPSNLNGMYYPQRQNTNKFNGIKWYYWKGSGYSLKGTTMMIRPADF
Experiment: competition ELISA, FLAG-cAng2 on coated cTie2-Fc
Each item that follows carries a reported pIC50.
pIC50 here: minus log base 10 of the concentration, concentration in moles per litre.

Study these solved cases before continuing.
- BINDER: "VHH 28D10 (VHH, also called 028D10; not shown: C-terminal c-myc tag and His6 tag) VHH: EVQLVESGGGLVQAGGSLRLSCAASGFTLDDYAIGWFRQAPGKEREGVSCIRDSDGSTYYADSVKGRFTISSDNDKNTVYLQMNSLKPEDTAVYYCAAVPAGRLRFGEQWYPLYEYDAWGQGTQVTVSS"
  QUANTITATIVE_READOUT: 8.70
- BINDER: "VHH 24B05 (VHH, also called 024B05; not shown: C-terminal c-myc tag and His6 tag) VHH: EVQLVESGGGLVQPGGSLRLSCAASGFTLDYYAIGWFRQAPGKEWEGVSCISSSDGSTYYADSVKGRFTISRDNAKNTVYLQMNSLKPEDTAVYYCATDSIVCGSYYGMDYWGKGTQVTVSS"
  QUANTITATIVE_READOUT: 8.68
- BINDER: "VHH 1D01 (VHH, also called 001D01; not shown: C-terminal c-myc tag and His6 tag) VHH: EVQLVESGGGLVQAGGSLRLSCAASGFTFDDYALGWFRQAAGKEREGVSCIRCSDGSTYYADSVKGRFTISSDNAKNTVYLQMNSLKPEDTAVYYCAASIVPRSKLEPYEYDAWGQGTQVTVSS"
  QUANTITATIVE_READOUT: 7.79
- BINDER: "VHH 11B07 (VHH, also called 011B07; not shown: C-terminal c-myc tag and His6 tag) VHH: EVQLVESGGGLVQVGDSLRLSCAASGRTFSTYLMVGWFRQAPGKEREFAAGIWSSGDTAYADSVRGRFTISRDNAKNTVYLQMNSLKTEDTAVYYCAGSYDGNYYIPGFYKDWGQGTQVTVSS"
  QUANTITATIVE_READOUT: 7.61
- BINDER: "VHH 10H02 (VHH, also called 010H02; not shown: C-terminal c-myc tag and His6 tag) VHH: EVQLVESGGGSVQAGGSLRLSCAASGFTFDDYAIGWFRQAPGKEREGVSCISSSDGSTNYADSVKGRFTISSDTAKNTVYLQMNSLKPEDTAVYYCTAVPATRRTPQMVDANMCWLAEYEYDYWGQGTQVTVSS"
  QUANTITATIVE_READOUT: 7.63
- BINDER: "VHH 7G08 (VHH, also called 007G08; not shown: C-terminal c-myc tag and His6 tag) VHH: EVQLVESGGGLVQPGGSLRLSCAASGFALDYYAIGWFRQVPGKEREGVSCISSSDGITYYVDSVKGRFTISRDNAKNTVYLQMNSLKPEDTAVYYCATDSGGYIDYDCMGLGYDYWGQGTQVTVSS"
  QUANTITATIVE_READOUT: 9.85
- BINDER: "VHH 37A09 (VHH, also called 037A09; not shown: C-terminal c-myc tag and His6 tag) VHH: EVQLMESGGGLVQPGGSLRLSCAASGFALDYYAIGWFRQVPGKEREGVSCISSSDGITYYVDSVKGRFTISRDNAKNTVYLQMNSLKPGDTAVYYCATDSGGYIDYDCMGLGYDYWGQGTQVTVSS"
  QUANTITATIVE_READOUT: 9.70
- BINDER: "VHH 37F02 (VHH, also called 037F02; not shown: C-terminal c-myc tag and His6 tag) VHH: EVQLVESGGGLVQPGGSLRLSCAASGFALDYYAIGWFRQAPGKEREGVSCISSSDGITYYVDSVKGRFTISRDNAKNTVYLQMNSLKPEDTAVYYCATDSGGYIDYDCMGLGYDYWGQGTQVTVSS"
  QUANTITATIVE_READOUT: 10.00

So what does the record say about pIC50 for VHH 13A02 (VHH, also called 013A02; not shown: C-terminal c-myc tag and His6 tag) VHH: EVQLVESGGGLVQAGGSLRLSCAASGGTFSSYSMGWFRQAPGKEREFIAAINWNGDSTYYEDSVKGRFTVSRDNAKNTVYLQMNSLKPEDTAVYYCAATGWGRAYEQAYEYDVWGQGTQVTVSS ?
7.48
